- targetOrTestSystem: UniProt:O00763
- assayRemarks: ACC2 assay (spectrophotometric 384 well assay, NADH-linked kinetic method)
- Assay type: biochemical
- conditionNotes: hACC2 construct lacking 128 N-terminal amino acids; coupled lactate dehydrogenase/pyruvate kinase reaction, 340 nm, 25° C.
pIC50: −log10 of the molar value.

# compound, pIC50
data = [
    ("CC(=O)N[C@@H](C)c1ccc(O[C@@H]2CCN(c3nc(N4CCCC4(C)C)ncc3F)C2)cc1 [Example 8.271]", 6.77),
    ("CC(=O)N[C@@H](C)c1ccc(O[C@@H]2CCN(c3nc(N4CCc5nocc5C4)ncc3F)C2)cc1 [Example 8.238]", 6.27),
    ("CC(=O)N[C@@H](C)c1ccc(O[C@@H]2CCN(c3nc(N4CC[C@@H](F)C4)ncc3F)C2)cc1 [Example 8.181]", 6.27),
    ("CC(=O)N[C@@H](C)c1ccc(O[C@@H]2CCN(c3cc(OCC4CC4(F)F)ncn3)C2)cc1 (stereo partly shown) [Example 7.5]", 6.07),
    ("CC(=O)N[C@@H](C)c1ccc(O[C@@H]2CCN(c3nc(N(C)CC4CCOC4)ncc3C)C2)cc1 (stereo partly shown) [Example 8.52]", 6.04),
    ("CCN(C)c1nccc(N2CCC(Oc3ccc([C@H](C)NC(=O)N(C)C)cc3)C2)n1 (stereo partly shown) [Example 3.9]", 6.93),
    ("CC(=O)N[C@@H](C)c1ccc(O[C@@H]2CCN(c3nc(N4CCC(C)(O)C4)ncc3F)C2)cc1 (stereo partly shown) [Example 8.156]", 6.82),
]

----------
- targetOrTestSystem: human ACC2 (Homo sapiens (Human), UniProt O00763)
- Sequence (O00763 129-2458): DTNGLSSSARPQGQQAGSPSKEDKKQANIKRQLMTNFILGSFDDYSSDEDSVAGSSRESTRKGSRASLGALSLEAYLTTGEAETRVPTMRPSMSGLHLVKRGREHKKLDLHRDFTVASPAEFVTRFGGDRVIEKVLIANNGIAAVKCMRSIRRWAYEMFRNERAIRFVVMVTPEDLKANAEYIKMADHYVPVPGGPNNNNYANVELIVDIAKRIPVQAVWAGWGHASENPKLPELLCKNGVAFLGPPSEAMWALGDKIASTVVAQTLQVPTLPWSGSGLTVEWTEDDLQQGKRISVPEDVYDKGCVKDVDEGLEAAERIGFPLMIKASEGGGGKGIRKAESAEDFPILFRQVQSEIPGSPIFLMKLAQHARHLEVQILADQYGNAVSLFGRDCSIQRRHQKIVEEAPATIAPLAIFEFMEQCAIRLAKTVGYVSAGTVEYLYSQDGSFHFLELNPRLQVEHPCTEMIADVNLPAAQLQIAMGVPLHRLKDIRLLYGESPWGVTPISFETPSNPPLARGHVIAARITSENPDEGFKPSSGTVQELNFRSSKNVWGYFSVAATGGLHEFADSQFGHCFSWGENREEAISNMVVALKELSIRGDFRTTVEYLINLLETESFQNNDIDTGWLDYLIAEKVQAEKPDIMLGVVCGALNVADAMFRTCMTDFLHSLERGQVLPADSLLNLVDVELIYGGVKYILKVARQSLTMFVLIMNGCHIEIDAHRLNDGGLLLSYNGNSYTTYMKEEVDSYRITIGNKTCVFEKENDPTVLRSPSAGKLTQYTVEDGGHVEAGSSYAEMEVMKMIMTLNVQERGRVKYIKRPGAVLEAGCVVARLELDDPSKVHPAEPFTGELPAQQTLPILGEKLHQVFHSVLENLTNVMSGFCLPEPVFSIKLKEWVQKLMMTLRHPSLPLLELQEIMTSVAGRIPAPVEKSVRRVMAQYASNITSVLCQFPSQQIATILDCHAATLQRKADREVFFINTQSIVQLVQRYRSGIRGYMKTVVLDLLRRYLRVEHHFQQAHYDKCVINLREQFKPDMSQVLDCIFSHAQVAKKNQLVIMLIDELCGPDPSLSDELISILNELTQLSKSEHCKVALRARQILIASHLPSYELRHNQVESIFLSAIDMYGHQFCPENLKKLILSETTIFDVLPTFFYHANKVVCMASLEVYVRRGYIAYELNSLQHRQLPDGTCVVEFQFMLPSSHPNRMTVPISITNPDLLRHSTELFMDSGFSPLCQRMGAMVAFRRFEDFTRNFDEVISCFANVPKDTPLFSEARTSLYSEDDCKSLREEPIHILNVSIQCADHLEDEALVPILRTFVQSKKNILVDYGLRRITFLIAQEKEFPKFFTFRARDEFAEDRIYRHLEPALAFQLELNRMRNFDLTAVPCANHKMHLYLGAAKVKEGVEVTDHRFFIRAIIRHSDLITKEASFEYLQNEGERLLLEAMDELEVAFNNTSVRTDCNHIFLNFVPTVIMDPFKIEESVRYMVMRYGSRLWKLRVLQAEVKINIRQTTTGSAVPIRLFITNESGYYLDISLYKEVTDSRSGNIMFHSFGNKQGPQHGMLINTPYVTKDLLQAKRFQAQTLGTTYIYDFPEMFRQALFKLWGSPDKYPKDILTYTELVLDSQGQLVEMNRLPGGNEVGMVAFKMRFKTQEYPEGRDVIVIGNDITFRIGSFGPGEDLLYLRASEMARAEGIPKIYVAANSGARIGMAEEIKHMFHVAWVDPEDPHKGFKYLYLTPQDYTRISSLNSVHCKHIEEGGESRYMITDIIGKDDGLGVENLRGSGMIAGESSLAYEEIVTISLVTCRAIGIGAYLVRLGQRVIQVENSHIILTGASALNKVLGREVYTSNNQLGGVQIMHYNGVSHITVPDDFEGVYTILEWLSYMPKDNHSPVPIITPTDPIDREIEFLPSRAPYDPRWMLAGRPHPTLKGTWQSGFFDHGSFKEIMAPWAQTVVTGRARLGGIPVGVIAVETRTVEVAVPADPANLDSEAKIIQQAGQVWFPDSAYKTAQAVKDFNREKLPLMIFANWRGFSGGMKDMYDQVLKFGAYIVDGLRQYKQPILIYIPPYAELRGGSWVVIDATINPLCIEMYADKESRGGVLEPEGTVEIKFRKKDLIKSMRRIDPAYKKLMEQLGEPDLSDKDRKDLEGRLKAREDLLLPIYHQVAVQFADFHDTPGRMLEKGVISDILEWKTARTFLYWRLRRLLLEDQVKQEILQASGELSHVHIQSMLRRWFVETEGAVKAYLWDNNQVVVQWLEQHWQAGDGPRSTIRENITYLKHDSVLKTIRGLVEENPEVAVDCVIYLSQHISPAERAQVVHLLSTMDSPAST
- assayRemarks: ACC2 assay (spectrophotometric 384 well assay, NADH-linked kinetic method)
- Type: biochemical
- conditionNotes: hACC2 construct lacking 128 N-terminal amino acids; coupled lactate dehydrogenase/pyruvate kinase reaction, 340 nm, 25° C.
pIC50: −log10 of the molar value.
Parameter: pIC50. Scope: all listed entries.
measurementLabel: pIC50

# compound, measurementLabel, endpointResult
records = [
    ("CCN(C)c1nccc(N2CC[C@@H](Oc3ccc([C@H](C)NC(=O)C(F)F)cc3)C2)n1", "pIC50", 7.23),
    ("CC(=O)N[C@@H](C)c1ccc(O[C@@H]2CCN(c3ncnc(N4CCCC4)c3F)C2)cc1", "pIC50", 7.17),
    ("CCCNc1ncnc(N2CC[C@@H](Oc3ccc([C@H](C)NC(C)=O)cc3)C2)c1Cl", "pIC50", 6.81),
    ("CC(=O)N[C@@H](C)c1ccc(O[C@@H]2CCN(c3ncnc(OC[C@H]4CC4(F)F)c3F)C2)cc1", "pIC50", 7.00),
    ("CC(=O)N[C@@H](C)c1ccc(O[C@@H]2CCN(c3nc(N4CCOC(C)(C)C4)ncc3Cl)C2)cc1", "pIC50", 6.45),
    ("CCN(C)c1nccc(N2CCC(Oc3ccc([C@H](C)NC(=O)c4cnoc4C)cc3)C2)n1 (stereo partly drawn)", "pIC50", 6.89),
    ("C[C@H](NC(=O)c1cncs1)c1ccc(O[C@@H]2CCN(c3ncc(OCC4CC4(F)F)cn3)C2)cc1 (stereo partly drawn)", "pIC50", 6.66),
    ("CC(=O)N[C@@H](C)c1ccc(O[C@@H]2CCN(c3ccnc(N4CCC(C)C4)n3)C2)cc1 (stereo partly drawn)", "pIC50", 6.78),
    ("CC(=O)N[C@@H](C)c1ccc(O[C@@H]2CCN(c3ncnc(N4CCC[C@H]4C)c3F)C2)cc1", "pIC50", 6.78),
    ("CC(=O)N[C@@H](C)c1ccc(O[C@@H]2CCN(c3ncnc(N4CCCCC4)c3Cl)C2)cc1", "pIC50", 7.28),
    ("CC(=O)N[C@@H](C)c1ccc(O[C@@H]2CCN(c3ncnc(N4CCOCC4)c3Cl)C2)cc1", "pIC50", 6.31),
    ("CC(=O)N[C@@H](C)c1ccc(O[C@@H]2CCN(c3ccnc(N4CCOCC4)n3)C2)cc1", "pIC50", 6.70),
    ("Cc1oncc1C(=O)N[C@@H](C)c1ccc(OC2CCN(c3ncnc(OCC4CC4)c3F)C2)cc1 (stereo partly drawn)", "pIC50", 7.32),
    ("CCN(CCO)c1ncc(F)c(N2CC[C@@H](Oc3ccc([C@H](C)NC(C)=O)cc3)C2)n1", "pIC50", 6.67),
    ("CCCNc1ncnc(N2CC[C@@H](Oc3ccc([C@H](C)NC(=O)c4sc(NC(=O)CC)nc4C)cc3)C2)c1F", "pIC50", 6.15),
]
